Where do the numbers come from? From paper PMC9601613.

molecular target: RpsL12 (ribosomal protein S12) (Lysinibacillus sphaericus, UniProt B1HMZ3); construct: isolated ribosomal protein without rRNA; 426 bp gene in pET32a(+), purified from soluble fraction of E. coli BL21; experiment: fluorescence polarization competition with tracer STR-FITC
Sequence (B1HMZ3 whole entry): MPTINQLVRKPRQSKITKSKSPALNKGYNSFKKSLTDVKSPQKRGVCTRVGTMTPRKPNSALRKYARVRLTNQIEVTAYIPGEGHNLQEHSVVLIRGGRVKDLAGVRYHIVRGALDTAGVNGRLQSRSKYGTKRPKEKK
So basically, if IC50 comes in under 100 nM it's true (1), and if it's 100 nM or more it's false (0).

Input: Find out if reported IC50 for CN[C@@H]1[C@H](O)[C@H](NC)[C@H]2O[C@@]3(O)C(=O)C[C@@H](C)O[C@H]3O[C@@H]2[C@H]1O [spectinomycin] is less than 100 nM
Output: false (0)

Input: For this compound, is IC50 lower than 100 nM? CNC[C@@H]1CC[C@@H](N)[C@@H](O[C@H]2[C@H](O)[C@@H](O[C@H]3OC[C@](C)(O)[C@H](NC)[C@H]3O)[C@H](N)C[C@@H]2N)O1 [micronomicin]
Output: false (0)

Input: Determine if CCN[C@@H]1C[C@H](N)[C@@H](O[C@H]2O[C@H](CN)CC[C@H]2N)[C@H](O)[C@H]1O[C@H]1OC[C@](C)(O)[C@H](NC)[C@H]1O [etimicin] shows IC50 strictly lower than 100 nM.
Output: false (0)

Input: Confirm or reject: IC50 of NC[C@@H]1O[C@H](O[C@H]2[C@@H](O)[C@H](O[C@@H]3[C@@H](O)[C@H](N)C[C@H](N)[C@H]3O[C@H]3O[C@H](CN)[C@@H](O)[C@H](O)[C@H]3N)O[C@@H]2CO)[C@H](N)[C@@H](O)[C@@H]1O [neomycin] lies strictly below 100 nM
Output: true (1)

Input: Strictly below 100 nM: is that where IC50 of NCC[C@H](O)C(=O)N[C@@H]1C[C@H](N)[C@@H](O[C@H]2O[C@H](CN)[C@@H](O)[C@H](O)[C@H]2O)[C@H](O)[C@H]1O[C@H]1O[C@H](CO)[C@@H](O)[C@H](N)[C@H]1O [amikacin] sits?
Output: false (0)

Input: hey, is IC50 for NC[C@@H]1O[C@H](O[C@H]2[C@@H](O)[C@H](O[C@@H]3[C@@H](O)[C@H](N)C[C@H](N)[C@H]3O[C@H]3O[C@H](CO)[C@@H](O)[C@H](O)[C@H]3N)O[C@@H]2CO)[C@H](N)[C@@H](O)[C@@H]1O [paromomycin] lower than 100 nM or not?
Output: false (0)
